IC50 data for FGFR1 (Homo sapiens) follow.

Please review the entries below; each comes with its answer.
Reported IC50, compound `COc1cc2nccc(Oc3ccc(N4CCNC4=O)c(Cl)c3)c2cc1C(N)=O` : ____
200 to 1000 nM

Same question, `COc1cc2nccc(Oc3ccc4oc(C(=O)N5CC(F)(F)C5)cc4c3)c2cc1C(N)=O` this time
200 to 1000 nM

Next entry: COc1cc2nccc(Oc3ccc(NC(=O)NC(C)C(F)(F)F)c(Cl)c3)c2cc1C(N)=O (centres unmarked)
200 to 1000 nM

Now consider `CNC(=S)Nc1ccc(Oc2ccnc3cc(OC)c(C(N)=O)cc23)cc1Cl` and answer again.
50 to 200 nM

Cool, now `COc1cc2nccc(Oc3ccc(NC(=S)N4CC[C@@H](O)C4)c(Cl)c3F)c2cc1C(N)=O`
50 to 200 nM

Batch request: IC50 for each of the following compounds.
1. COc1cc2nccc(Oc3cc4occ(C(=O)NC5CC5)c4cc3Cl)c2cc1C(N)=O
2. COc1cc2nccc(Oc3ccc4c(C(=O)NC5CC5)coc4c3)c2cc1C(N)=O
3. COc1cc2nccc(Oc3ccc(NC(=S)N4CC[C@H](O)C4)c(Cl)c3F)c2cc1C(N)=O

["200 to 1000 nM", "50 to 200 nM", "50 to 200 nM"]

###

- Test system: PDGFRB (Homo sapiens)
- Construct: purchased Millipore
- Sequence (P09619 33-1106): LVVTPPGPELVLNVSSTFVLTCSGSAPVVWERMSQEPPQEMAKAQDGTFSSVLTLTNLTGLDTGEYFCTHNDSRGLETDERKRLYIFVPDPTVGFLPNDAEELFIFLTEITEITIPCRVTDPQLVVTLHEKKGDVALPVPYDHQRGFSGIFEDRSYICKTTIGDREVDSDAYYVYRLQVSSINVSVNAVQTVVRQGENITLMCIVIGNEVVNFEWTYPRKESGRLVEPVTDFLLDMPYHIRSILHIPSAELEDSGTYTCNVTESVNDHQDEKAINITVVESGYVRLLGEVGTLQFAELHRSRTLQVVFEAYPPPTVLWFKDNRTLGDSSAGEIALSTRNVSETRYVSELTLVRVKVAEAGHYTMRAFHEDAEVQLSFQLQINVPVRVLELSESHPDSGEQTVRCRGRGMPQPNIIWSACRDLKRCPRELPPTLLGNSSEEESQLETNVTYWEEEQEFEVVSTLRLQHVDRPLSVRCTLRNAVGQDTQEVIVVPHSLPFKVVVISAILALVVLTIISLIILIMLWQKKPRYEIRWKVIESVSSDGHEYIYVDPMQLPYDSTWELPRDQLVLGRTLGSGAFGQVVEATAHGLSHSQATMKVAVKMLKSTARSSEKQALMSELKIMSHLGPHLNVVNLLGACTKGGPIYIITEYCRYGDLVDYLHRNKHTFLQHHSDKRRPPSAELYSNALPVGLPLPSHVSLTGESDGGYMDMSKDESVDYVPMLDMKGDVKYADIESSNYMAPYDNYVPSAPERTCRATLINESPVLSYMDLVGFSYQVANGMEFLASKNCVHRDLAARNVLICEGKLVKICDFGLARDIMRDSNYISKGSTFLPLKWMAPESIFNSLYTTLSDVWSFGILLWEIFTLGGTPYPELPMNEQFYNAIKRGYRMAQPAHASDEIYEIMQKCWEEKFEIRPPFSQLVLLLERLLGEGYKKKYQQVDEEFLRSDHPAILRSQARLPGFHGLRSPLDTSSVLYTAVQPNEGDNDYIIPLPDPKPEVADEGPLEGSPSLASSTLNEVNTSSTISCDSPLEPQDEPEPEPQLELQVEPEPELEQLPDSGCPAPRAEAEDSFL
- Assay summary: Z'-LYTE in vitro enzyme activity assay, PDGFRB
- Type: biochemical
- Test conditions: 100 μM ATP, 60 minutes, room temperature; read-out: IC50 detected by Z'-LYTE, PDGFRB
- Method: The enzyme activity was measured by Z′-LYTE™ Detection Kinase Assay. The IC50 value of the compounds was used as an index to evaluate the inhibitory effect of the compounds on VEGFR2, FGFR1 and PDGFRB. Recombinant human VEGFR2 and FGFR1 proteases were purchased from Life technology, PDGFRB Protease was purchased from Millipore. Z-LYTE™ Kit Tyr1 and Tyr4 were purchased from Life technology. Multi-microplate reader, Envision (PerkinElmer) read board was used. […]
pIC50: −log10 of the molar value.
Experimental readout: pIC50

Use these answered entries as a reference point.
For the molecule `CCNC(=O)c1coc2cc(Oc3ccnc4cc(OC)c(C(N)=O)cc34)c(F)cc12` , what pIC50 is on record?
> 7.30

Then this molecule: `COc1cc2nccc(Oc3ccc(NC(=S)NCc4ccc(Cl)cc4)c(Cl)c3)c2cc1C(N)=O`
> 7.30

Lookup `COc1cc2nccc(Oc3ccc(N4C(=O)CNC4=S)c(Cl)c3)c2cc1C(N)=O`
6.70 to 7.30

Also, `COc1cc2nccc(Oc3ccc(NC(=S)N4CCC4)c(Cl)c3)c2cc1C(N)=O` please.
6.70 to 7.30

Repeat for the following molecule: `COc1cc2nccc(Oc3ccc4c(C(=O)NC5CC5)c[nH]c4c3)c2cc1C(N)=O`
6.00 to 6.70

Repeat with `COc1cc2nccc(Oc3ccc(NC(=S)NC4CC4)c(Cl)c3)c2cc1C(=O)NCC(F)F`
6.70 to 7.30

// each listed molecule needs a value for pIC50
1. COc1cc2nccc(Oc3cc4occ(C(=O)NC5CC5)c4cc3Cl)c2cc1C(N)=O
2. COc1cc2nccc(Oc3ccc(Nc4c(NCCN(C)C)c(=O)c4=O)c(Cl)c3)c2cc1C(N)=O

1. > 7.30
2. 6.00 to 6.70

###

Here's a batch of compounds along with measured pIC50 for VEGFR2 (Homo sapiens, UniProt P35968).
pIC50: −log10 of the molar value.

Would you mind telling me what pIC50 value was observed for COc1cc2nccc(Oc3ccc(NC(=O)N4CC(F)(F)C4)c(Cl)c3F)c2cc1C(N)=O [Example 119] ?
6.70 to 7.30

Now the compound COc1cc2nccc(Oc3ccc(NC(=S)NC4CC4)c(Cl)c3)c2cc1C(=O)N1CCCC1 [Example 48]
6.00 to 6.70

And COc1cc2nccc(Oc3ccc(N4C(=O)CNC4=S)c(Cl)c3)c2cc1C(N)=O [Example 166] ?
> 7.30

New cases:
What does the record list as pIC50 for COc1cc2nccc(Oc3ccc(Nc4nc(=O)cc(C)[nH]4)c(Cl)c3)c2cc1C(N)=O [Example 135] ?
6.00 to 6.70

###

This document collects IC50 values reported for FGFR1 (Homo sapiens, UniProt P11362).

Completed entries (count: 3):
Param item = `COc1cc2nccc(Oc3ccc4c(C(=O)NC5CC5)c[nH]c4c3)c2cc1C(N)=O` ; retrieve measured IC50.
0.2 to 1 µM

Quick one: `COc1cc2nccc(Oc3ccc(NC(=S)N4CC(F)(F)C4)cc3F)c2cc1C(N)=O`
0.2 to 1 µM

Query `[2H]C([2H])([2H])NC(=O)c1coc2cc(Oc3ccnc4cc(-c5cn(C)cn5)ccc34)ccc12` next
< 0.05 µM

New cases:
Fill in: IC50 of `COc1cc2nccc(Oc3ccc4c(C(=O)N5CC[C@@H](F)C5)coc4c3)c2cc1C(N)=O` is ___
0.2 to 1 µM

###

For each entry below, report its pIC50 value.
- Test system: VEGFR2 (Homo sapiens, UniProt P35968)
- Sequence (P35968 20-1356): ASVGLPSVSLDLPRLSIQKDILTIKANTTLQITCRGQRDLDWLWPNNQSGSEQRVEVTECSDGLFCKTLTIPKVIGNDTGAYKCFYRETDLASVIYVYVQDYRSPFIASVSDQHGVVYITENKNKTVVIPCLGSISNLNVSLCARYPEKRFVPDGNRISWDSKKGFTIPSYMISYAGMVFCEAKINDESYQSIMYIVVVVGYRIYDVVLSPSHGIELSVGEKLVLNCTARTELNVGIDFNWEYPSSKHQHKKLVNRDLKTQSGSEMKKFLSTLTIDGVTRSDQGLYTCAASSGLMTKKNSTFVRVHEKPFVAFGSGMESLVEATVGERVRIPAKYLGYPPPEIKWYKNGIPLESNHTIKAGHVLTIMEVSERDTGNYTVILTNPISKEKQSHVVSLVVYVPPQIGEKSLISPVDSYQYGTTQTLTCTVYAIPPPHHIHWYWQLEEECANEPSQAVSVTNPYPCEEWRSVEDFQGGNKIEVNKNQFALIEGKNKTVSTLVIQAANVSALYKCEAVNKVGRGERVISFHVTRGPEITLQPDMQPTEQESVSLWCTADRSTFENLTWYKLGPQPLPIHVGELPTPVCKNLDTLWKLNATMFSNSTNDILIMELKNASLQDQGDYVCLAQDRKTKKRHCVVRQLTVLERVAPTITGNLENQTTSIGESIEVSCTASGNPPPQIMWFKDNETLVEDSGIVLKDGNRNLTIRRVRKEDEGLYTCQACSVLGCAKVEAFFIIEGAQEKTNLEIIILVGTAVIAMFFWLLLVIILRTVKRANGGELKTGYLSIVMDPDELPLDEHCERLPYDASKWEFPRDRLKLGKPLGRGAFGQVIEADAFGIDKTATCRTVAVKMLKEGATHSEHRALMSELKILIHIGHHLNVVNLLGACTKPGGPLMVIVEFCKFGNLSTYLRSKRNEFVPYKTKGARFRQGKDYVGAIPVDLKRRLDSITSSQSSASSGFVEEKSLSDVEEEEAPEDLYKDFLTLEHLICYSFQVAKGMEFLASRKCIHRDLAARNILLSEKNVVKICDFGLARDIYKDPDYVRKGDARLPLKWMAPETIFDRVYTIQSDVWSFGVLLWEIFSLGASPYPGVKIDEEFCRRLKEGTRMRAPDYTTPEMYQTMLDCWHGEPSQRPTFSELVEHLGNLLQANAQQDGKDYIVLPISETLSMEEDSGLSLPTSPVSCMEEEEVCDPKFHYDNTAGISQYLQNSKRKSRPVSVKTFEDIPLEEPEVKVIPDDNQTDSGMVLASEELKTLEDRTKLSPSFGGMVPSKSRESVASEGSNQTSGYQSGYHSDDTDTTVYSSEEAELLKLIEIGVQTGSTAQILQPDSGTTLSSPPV
pIC50: −log10 of the molar value.

Examples with answers:
Data request, read-out pIC50, for COc1cc2nccc(Oc3ccc(CC(=O)N4CC(F)(F)C4)cc3)c2cc1C(N)=O [Example 177]
6.00 to 6.70

Next molecule up: COc1cc2nccc(Oc3ccc(NC(N)=S)c(Cl)c3)c2cc1C(N)=O [Example 57]
> 7.30

Another molecule to look at: COc1cc2nccc(Oc3ccc4c(C(=O)N5CC(F)(F)C5)c[nH]c4c3)c2cc1C(N)=O [Example 189]
6.00 to 6.70

Alright, here's another molecule for you.
Which value of pIC50 has been reported for COc1cc2nccc(Oc3cc4occ(C(=O)N5CC(F)(F)C5)c4cc3Cl)c2cc1C(N)=O [Example 198] in the records?
6.00 to 6.70

###

Lab note: IC50 readings collected with PDGFRB (Homo sapiens) for the following compounds.

Some solved entries appear below for comparison.
Item under review: `COc1cc2nccc(Oc3ccc(NC(=S)NCc4ccncc4)c(Cl)c3)c2cc1C(N)=O` . Reported IC50?
50 to 200 nM

Next compound: `COc1cc2nccc(Oc3ccc4c(C(=O)N5CCCC5)c[nH]c4c3)c2cc1C(N)=O`
200 to 1000 nM

Proceed to `COc1cc2nccc(Oc3ccc(NC(=S)N4CC(F)(F)C4)c(Cl)c3F)c2cc1C(N)=O`
50 to 200 nM

For the 5 compounds below, give their IC50 values.
1. CCNC(=O)Nc1ccc(Oc2ccnc3cc(-c4cn(C)cn4)ccc23)c(F)c1Cl
2. COc1cc2nccc(Oc3ccc(NC(=S)NC4CCC4)c(Cl)c3)c2cc1C(N)=O
3. COc1cc2nccc(Oc3ccc(N4CC(=O)N(C)C4=S)c(Cl)c3)c2cc1C(N)=O
4. COc1cc2nccc(Oc3ccc(NC(=S)NC4CC4)c(C(F)(F)F)c3)c2cc1C(N)=O
5. CCN(CC)CCCNC(=O)c1cc2c(Oc3ccc(NC(=S)NC4CC4)c(Cl)c3)ccnc2cc1OC

50 to 200 nM
50 to 200 nM
50 to 200 nM
200 to 1000 nM
50 to 200 nM

###

- Test system: VEGFR2 (Homo sapiens)
pIC50: −log10 of the molar value.
Give measured pIC50 for each item. Keep answers brief.

Some compounds with recorded pIC50:
What does the data say about its pIC50? Entry: `COc1cc2nccc(Oc3ccc(N4CC(=O)N(C)C4=S)c(Cl)c3)c2cc1C(N)=O`
6.00 to 6.70

Now consider `COCCNC(=O)c1cc2c(Oc3ccc(NC(=S)NC4CC4)c(Cl)c3)ccnc2cc1OC` and answer again.
6.70 to 7.30

// next record `O=C(Nc1ccc(Oc2ccnc3cc(-c4cncn4-c4ccccc4)ccc23)c(F)c1Cl)NC1CC1`
6.70 to 7.30

Same for `COc1cc2nccc(Oc3cc(Cl)c4c(C(=O)NC5CC5)coc4c3)c2cc1C(N)=O`
6.00 to 6.70

Cool, now `CCN(CC)CCNC(=O)c1cc2c(Oc3ccc(NC(=S)NC4CC4)c(Cl)c3)ccnc2cc1OC`
6.70 to 7.30

State recorded pIC50 for all listed compounds.
1. COc1cc2nccc(Oc3ccc(NC(=S)N4CC(F)(F)C4)c(Cl)c3)c2cc1C(F)(F)F
2. COc1cc2nccc(Oc3ccc(Nc4c(NC5CCOCC5)c(=O)c4=O)c(Cl)c3)c2cc1C(N)=O

["6.00 to 6.70", "6.00 to 6.70"]

###

pIC50: −log10 of the molar value.
Endpoint: pIC50. System: UniProtKB P09619. Items follow.

Fill in the blank: the reported pIC50 of `COc1cc2nccc(Oc3ccc(NC(=S)Nc4ccccc4)c(Cl)c3)c2cc1C(N)=O` is ____.
6.70 to 7.30

// for each compound in input: emit pIC50
1. COc1cc2nccc(Oc3ccc(CC(=O)N4CCCC4)cc3)c2cc1C(N)=O
2. COc1cc2nccc(Oc3cc(Cl)c(NC(=S)NC4CC4)cc3F)c2cc1C(N)=O
3. COc1cc2nccc(Oc3ccc(NC(=S)NC4CCOC4=O)c(Cl)c3)c2cc1C(N)=O (centres unmarked)
4. COc1cc2nccc(Oc3ccc(NC(=S)Nc4cc[nH]n4)c(Cl)c3)c2cc1C(N)=O
5. COc1cc2nccc(Oc3ccc4c(C(=O)N5CC[C@H](F)C5)coc4c3)c2cc1C(N)=O

1: 6.00 to 6.70; 2: 6.70 to 7.30; 3: 6.00 to 6.70; 4: 6.00 to 6.70; 5: 6.00 to 6.70

Below are some compounds; for each one, tell me its pIC50.
1. CCOCCCOc1cc2nccc(Oc3ccc(NC(=S)NC4CC4)c(Cl)c3)c2cc1C(N)=O
2. CCNC(=S)Nc1ccc(Oc2ccnc3cc(OC)c(C(N)=O)cc23)cc1Cl
3. COc1cc2nccc(Oc3ccc(NC(=S)NC4CC=C(F)CC4)c(Cl)c3)c2cc1C(N)=O (centres unmarked)
4. COc1cc2nccc(Oc3ccc(NC(=S)NCc4ccccn4)c(Cl)c3)c2cc1C(N)=O
5. COc1cc2nccc(Oc3ccc(NC(=S)NCc4cccnc4)c(Cl)c3)c2cc1C(N)=O
6. COc1cc2nccc(Oc3ccc(NC(=S)NCc4ccc(F)cc4)c(Cl)c3)c2cc1C(N)=O
7. COc1cc2nccc(Oc3ccc(NC(=S)NC4CCC(F)(F)CC4)c(Cl)c3)c2cc1C(N)=O

["6.70 to 7.30", "> 7.30", "6.00 to 6.70", "6.70 to 7.30", "> 7.30", "6.70 to 7.30", "6.70 to 7.30"]

Report pIC50 for each item below.
1. CCN(CC)CCNC(=O)c1cc2c(Oc3ccc(NC(=S)NC4CC4)c(Cl)c3)ccnc2cc1OC
2. COc1cc2nccc(Oc3ccc(NC(=O)NC(C)C(F)(F)F)c(Cl)c3)c2cc1C(N)=O (centres unmarked)
3. COc1cc2nccc(Oc3ccc(NC(=S)NC4CC4)nc3)c2cc1C(N)=O
4. COc1cc2nccc(Oc3ccc(NC(=O)N4CC[C@@H](O)C4)c(Cl)c3F)c2cc1C(N)=O
5. COc1cc2nccc(Oc3ccc(NC(=S)N4CCN(C)CC4)c(Cl)c3)c2cc1C(N)=O

["6.70 to 7.30", "6.00 to 6.70", "> 7.30", "6.00 to 6.70", "6.70 to 7.30"]
